- Target or test system: T1, PTPN13-4 (human, UniProt Q12923 1788-1868)
- T1 construct: PDZ domain number 4 of human PTPN13; also called PTPN13 PDZ dom 4; fourth PDZ domain of PTPN13; source: E. coli, in crude cell lysate; not shown: His, N-terminal, kept
- T1 sequence (looked up): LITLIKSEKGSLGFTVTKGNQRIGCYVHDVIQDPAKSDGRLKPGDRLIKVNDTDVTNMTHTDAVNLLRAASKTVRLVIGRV
- Method description: holdup assay; biotinylated PBM peptide saturating streptavidin resin (biotin resin as reference); tag-PDZ at 4 uM in crude E. coli lysate, 15 min, filtration, free tag-PDZ by capillary electrophoresis; singlicate; BI cut-off 0.20; BI converted into KD with the peptide concentration back-calculated from FP
- Conditions used: one partner purified
pKd: −log10 of the molar value. Where no end group is shown, it is not given here. The star is where a group is joined. Biotin = O=C1N[C@H]2[C@H](CS[C@H]2CCCCC(=O)*)N1; TTDS = NCCCOCCOCCOCCCNC(=O)CCC(=O)*
Measurement type: pKd

1. {Biotin-TTDS}-PFDEDQHTQITKV (peptide, UniProt P60484 391-403, looked up, also called 13-mer PTEN peptide; extended wild-type peptide; source: synthetic peptide, bought: JPT Innovative Peptide Solutions (70%-80% purity)) [PTEN_13]
4.44
